# experimental.target: T1, recombinant human PVRIG-human IgG1 Fc fusion protein (human)
# T1 construct: no linker is told; also called human PVRIG-Fc fusion protein
# T1 sequence (chain, as listed by the source limits assumed): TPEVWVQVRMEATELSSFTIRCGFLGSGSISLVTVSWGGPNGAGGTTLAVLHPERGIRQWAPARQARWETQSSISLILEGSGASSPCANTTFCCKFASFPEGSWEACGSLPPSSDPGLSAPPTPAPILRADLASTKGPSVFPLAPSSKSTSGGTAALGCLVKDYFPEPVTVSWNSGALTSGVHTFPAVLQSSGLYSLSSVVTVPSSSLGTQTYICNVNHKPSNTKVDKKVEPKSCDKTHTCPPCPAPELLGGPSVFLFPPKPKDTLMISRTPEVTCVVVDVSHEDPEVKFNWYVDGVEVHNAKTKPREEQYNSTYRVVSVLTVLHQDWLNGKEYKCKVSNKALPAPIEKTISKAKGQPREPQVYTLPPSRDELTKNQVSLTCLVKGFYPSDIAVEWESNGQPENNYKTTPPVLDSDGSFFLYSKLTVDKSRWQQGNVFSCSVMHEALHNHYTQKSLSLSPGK
# assay.comment: SPR (Biacore), human PVRIG-human IgG1 Fc on chip, antibody in flow, 1:1 model
Form field: koff (one value per entry).

Reference set (2 entries):
Antibody 4-hu11 (antibody, human IgG4 S228P, kappa, V domains shown, Humanized Antibody 4; heavy chain IgG4 with S228P already in the entry) VH: EVQLVQSGAEVKKPGSSVKVSCKASGYTFSSFSIEWVRQAPGQGLEWIGEILPGSNSTNYNEKFKGKATFTADTSTNTAYMELSSLRSEDTAVYYCSSYWFAYWGQGTLVTVSS VL: DIVMTQSPDSLAVSLGERATINCKSSQSLLNSGNQKNYLAWYQQKPGQPPKLLIYGASTRESGVPDRFSGSGSGTDFTLTISSLQAEDVAVYYCQNAHSYPPTFGQGTKLEIKR	≤ 1e-06 s⁻¹
Antibody 4 (antibody, V domains shown, Murine monoclonal antibody from hybridoma ascites; Used AF647-labelled in several flow cytometry assays; also called murine antibody (Antibody 4); murine Antibody 4) VH: QVQLQQSGAELVKPGASVKISCKATGYTFSSFSIEWVKQRPGHGLAWIGEILPGSNSTNYNEKFKGKATFTADTSSNTAYMQLSSLTSEDSAVYYCSSYWFAYWGQGTLVTVSA VL: DIVMTQSPSSLSVSAGEKVTMSCKSSQSLLNSGNQKNYLAWYQQKPGQPPKLLIYGASTRESGVPDRFTGSGSGTDFTLTISSVQAEDLAVYYCQNAHSYPPTFAAGTKLELK	≤ 1e-06 s⁻¹

Alright, here's another binder for you.
Please give the measured koff for this binder: Antibody 4-hu3 (antibody, human IgG4 S228P, kappa, V domains shown, Humanized Antibody 4; heavy chain IgG4 with S228P already in the entry) VH: EVQLVQSGAEVKKPGSSVKVSCKASGGTFSSFSIEWVRQAPGQGLEWMGEILPGSNSTNYNEKFKGRVTFTADESTSTAYMELSSLRSEDTAVYYCSSYWFAYWGQGTLVTVSS VL: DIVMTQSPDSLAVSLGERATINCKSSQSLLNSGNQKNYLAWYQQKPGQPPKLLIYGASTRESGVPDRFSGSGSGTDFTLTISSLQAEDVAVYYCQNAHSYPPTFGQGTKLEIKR
1.95e-05 s⁻¹

These entries and their values trace back to patent US20230227572A1.
